Recorded values, source PubChem BioAssay.

Experiment: inhibitors of TNFa-induced NFkB p65 translocation, primary screen, imaging, HUVEC, MLSMR starter and 10KST1 sets (AID 438);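 further: compound added about 3h40 before a 20 min TNFalpha stimulation; signal is the nuclear over cytoplasmic p65 intensity ratio per well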
Conditions: HUVEC TNFa-induced p65 nuclear translocation; at 2 µM, stronger effect = higher value, 0% TNFa-plus-vehicle, 100% no-TNFa wells
Each record here notes measured inhibition.
Give a bare numeral; the unit % is implied.

Illustrative cases are given below, each with its answer.
- CCN(CCCNC(=O)COc1cc(=O)n(CC)c2ccccc12)c1ccccc1: 0.6
- COc1ccc2c(c1)C(C)=CC(C)(C)N2C(=O)CSc1nnc(-c2ccc(C)cc2)o1: 12.5
- COCCCN(C(C)=O)c1nc(-c2ccccc2)cs1: -6.3
- COc1ccc(NC(=O)C2CCCN2S(=O)(=O)c2cccc3cccnc23)c(OC)c1 (stereo not given): -8.6

Task: // lookup inhibition for Cc1ccccc1-n1nnnc1SCC(=O)Nc1ccc(S(=O)(=O)N2CCCC2)cc1
Output: -5.5

----------
Assay: reduction of polyQ htt aggregates in cells – imaging, exon1htt(103Q)mCFP cells, high-content imaging, primary screen (AID 483);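 further: compound exposure lasted 3 days before fixation; percent of the per-plate median nuclei count of sample wells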
Conditions: exon1htt(103Q)mCFP cell line, aggregate imaging, at 2 µM; measured here: cell count, toxicity
Each record here notes measured nuclei count.
Give a bare numeral; the unit % is implied.

Illustrative cases are given below, each with its answer.
• CCCc1cc(C(=O)Nc2sc3c(c2C#N)CCC3)no1 = 95.8
• O=C(CSc1nnnn1C1CCCCC1)N1CCc2ccccc21 = 101

Task: // lookup nuclei count for O=C(Cn1nnc(-c2ccc(CN3CCOCC3)cc2)n1)NC1CCCCC1
Output: 108

----------
Assay: reduction of polyQ htt aggregates in cells – imaging, exon1htt(103Q)mCFP cells, high-content imaging, primary screen (AID 483);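 further: compound exposure lasted 3 days before fixation; percent of the per-plate median nuclei count of sample wells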
Conditions: exon1htt(103Q)mCFP cell line, aggregate imaging, at 2 µM; measured here: cell count, toxicity
MEASURED_METRIC: nuclei count (%)
Give a bare numeral; the unit % is implied.

* O=c1c2cc(Cl)ccc2[nH]c(=S)n1Cc1ccco1 | 89.7
* Cc1cc(C)n(-c2nc3sc4c(c3c3nnc(SC(C)C)n23)CC(C)(C)OC4)n1 | 113
* COc1ccc(C)cc1NC(=O)CN(Cc1nnc(-c2ccc(Cl)cc2)o1)C1CCCC1 | 85.9

Task: // lookup nuclei count for COc1ccc(-c2noc(-c3ccccc3C(=O)Nc3cccnc3)n2)cc1OC
Output: 103

Task: Please do the same for CCOc1cc(NC(=O)c2ccco2)c(OCC)cc1NC(=O)Cc1cccc(OC)c1 as well.
Output: 107

Task: Please do the same for COC(=O)c1cc2oc(C)cc2n1CC(=O)Nc1ccc(C)c(C)c1 as well.
Output: 103

Task: Please do the same for COc1ccc(CCNC(=O)C2CCN(S(=O)(=O)c3cc(OC)ccc3OC)CC2)cc1 as well.
Output: 93.2

Task: Please do the same for O=C(c1ccc(Cl)cc1)N1CCCCC(Sc2nnc(-c3ccc4c(c3)OCO4)o2)C1=O (stereo not given) as well.
Output: 93.7

Task: Please do the same for CCOc1ccc(C(C)=O)cc1COc1ccc(-n2cnnn2)cc1 as well.
Output: 80.8

Task: Please do the same for CCc1nnc2sc(-c3cc(-c4ccccc4)nc4ccccc34)nn12 as well.
Output: 87

----------
Each record here notes measured inhibition.
Assay: blockers of RIG-like receptor reporter activation – cell-based, Sendai virus stimulus, luciferase, 10K MLSCN set, TLR/RLR signaling modifier project, primary screen (AID 602276);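 further: firefly luciferase from ISG56 promoter only with Renilla not read in this screen; 0% = Sendai virus plus DMSO and 100% = medium plus DMSO without virus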
Details: HEK293 RL24 IRF3 luciferase reporter, at 10 µM, stronger effect = higher value
Give a bare numeral; the unit % is implied.

• NC(=O)CSc1nnc(-c2cc3ccccc3o2)n1Cc1ccccc1 = 19.8

Task: // lookup inhibition for O=C(c1ccc(-c2ccccc2)cc1)N1CCN(c2ncccn2)CC1
Output: 2.14

Task: Please do the same for Cc1ccc2cc(C#N)c(NCCCNC(=O)C3CCCO3)nc2c1 (stereo unspecified) as well.
Output: 9.51

Task: Please do the same for COc1cc(-n2nc(C)c3c2OC(N)=C(C#N)C3c2ccccc2)c(Cl)c(Br)c1O (stereo unspecified) as well.
Output: 18.2

Task: Please do the same for Cc1ccc2nc(NCCCN3CCOCC3)c(C=NCCCN3CCOCC3)c(=O)n2c1 as well.
Output: 14.7

Task: Please do the same for CCOC(=O)C1CCCN(CCC(C)c2ccccc2)C1 (stereo unspecified) as well.
Output: 14.2

Task: Please do the same for Nn1c(SCC(=O)Nc2ccc(F)cc2)nnc1-c1cccnc1 as well.
Output: 12.6

Task: Please do the same for CCN(C(=O)c1cc(Cl)ccc1OC)c1ccccc1 as well.
Output: 14.3

Task: Please do the same for Cc1ccc2cc(CCNC(=O)C(C)C)c(=O)[nH]c2c1C as well.
Output: -6.46

Task: Please do the same for Cc1cc(C)cc(NC(=O)C2CCCN(c3nccc(C)n3)C2)c1 (stereo unspecified) as well.
Output: 9.71

Task: Please do the same for Cn1c(=O)n(CCN2CCOCC2)c(=O)c2c1nc1n2CCN1c1ccccc1 as well.
Output: -6.67

Task: Please do the same for CCOC(=O)N1CCN(c2c(N3CCN(c4ccccn4)CC3)c(=O)c2=O)CC1 as well.
Output: 9.82

Task: Please do the same for O=C(NCc1cccs1)c1cc2c(s1)-c1ccccc1OC2 as well.
Output: -42

Task: Please do the same for CCOC(=O)C1=C(C)OC(N)=C(C#N)C1c1ccoc1 (stereo unspecified) as well.
Output: 9.81

Task: Please do the same for COC(=O)C1CCN(C(=O)NC(C)(C)C)CC1 as well.
Output: 5.02

Task: Please do the same for CC(Oc1ccccc1)C(=O)NC1CC(C)(C)NC(C)(C)C1 (stereo unspecified) as well.
Output: 17.4

Task: Please do the same for CCCCSc1nnc([C@H](C)NC(=O)OC(C)(C)C)o1 as well.
Output: 11.6

Task: Please do the same for Cc1c(NC(=O)CCc2ccc(S(=O)(=O)N3CCOCC3)cc2)c(=O)n(-c2ccccc2)n1C as well.
Output: -8.63

Task: Please do the same for COc1ccc(C2=NO[C@@H]3C(=O)N(c4ccc5c(c4)OCCO5)C(=O)[C@H]23)cc1OC as well.
Output: -13.6

Task: Please do the same for COc1ccc(-c2noc(CCN3C(=O)c4ccccc4C3=O)n2)cc1OC as well.
Output: -0.74

Task: Please do the same for O=C(O)CCC(=O)c1c[nH]c2ccccc12 as well.
Output: -16.3

Task: Please do the same for Cc1nn(C)cc1NC(=O)CCSc1nc(-c2ccco2)cc(C(F)(F)F)n1 as well.
Output: -8.54

Task: Please do the same for Cc1ccc(-c2nnc(SCC(=O)N3c4ccccc4NC(=O)C3(C)C)n2N)cc1 as well.
Output: -12.6

Task: Please do the same for CCCOc1ccc(OCCSc2ncccn2)cc1 as well.
Output: -39.4

Task: Please do the same for CN(c1ccccc1)S(=O)(=O)c1ccc(C(=O)OCC(=O)N2CCOCC2)cc1 as well.
Output: 11.4
